Quick reference: activity change, negative = inhibition of the listed items.
measurement-description: T. gondii ME49Luc in HeLa cells, luciferase assay, 72 h, no IFN-y (AID 1259421)
experimental-conditions: hits give low values, concentration not given here
Among all 6,400 compounds or so, about 610 (9.5%) were called active. The entries come from a sample that favours actives as a whole.
measured-attribute: activity change, negative = inhibition (%)

compound	observed-measurement
C/C(=N\NC(=O)[C@@H]1C(=O)NC[C@H]1c1ccccc1)c1cccc(Br)c1	1.33
CC1(C)C2CC[C@]3(C)C(C(=O)C=C4[C@@H]5C[C@@](C)(C(=O)O)CC[C@]5(C)CC[C@]43C)[C@@]2(C)CC[C@@H]1OC(=O)CCC(=O)O (stereo partly specified)	6.36
CCCC(CCC)C(=O)Nc1ccn([C@@H]2O[C@H](CO)[C@@H](O)C2(F)F)c(=O)n1	-1.71
CN(C)Cc1ccc(S(=O)(=O)n2ccc(/C=C/C(=O)NO)c2)cc1	-84.8
CC1(C)C(=O)NC2=C1C(=O)C(=O)c1ccccc12	-90
CCC(C(N)=O)c1ccccc1 (stereo unspecified)	-4.72
CCCCCCCCCCC(C)(C)C(=O)Nc1c(OC)cc(OC)cc1OC	16.9
CC1(C)O[C@H]2CC(=O)OC[C@]23[C@H]2CC[C@@]4(C)[C@H](c5ccoc5)OC(=O)[C@H]5O[C@]54[C@]2(C)C(=O)C[C@@H]13	7.46
N=C1CCCN1Cc1[nH]c(=O)[nH]c(=O)c1Cl	3.86
CC(=O)c1ccc2c(c1)[C@@H]1C=CC[C@@H]1[C@H](c1cc3c(cc1Br)OCO3)N2	-79.7
CCCCCN=c1ccn(Cc2ccccc2)c2ccccc12	-3.35
COc1ccc(CCCn2ncc3c2nc(N)n2nc(-c4ccco4)nc32)cc1	-11.7
Cc1ccc(NC(=O)c2cccc(C(C)(C)C#N)c2)cc1Nc1ccc2ncn(C)c(=O)c2c1	-3.87
NC(COCc1ccccc1)C(=O)O (stereo unspecified)	2.58
C=CC(C)(C)c1cc(/C=C/C(=O)c2ccc(O)cc2)c(OC)cc1O	187
Cn1cnc2nc(NCCO)nc(NCc3ccccc3)c21	-3.03
O=C(O)c1ccc2c(c1)OCO2	16
CN1CCN(c2cccc(Nc3nc4c(-c5ccc(S(C)(=O)=O)cc5)cccn4n3)c2)CC1	-0.0052
CCCCCCCCN=c1ccn(CCCCCCCCCCn2ccc(=NCCCCCCCC)cc2)cc1	-74.7
CC(=O)O[C@@H]1CC[C@@]2(C)C(C[C@@H](OC(C)=O)[C@@]3(C)C4=CC(=O)O[C@@H](c5ccoc5)[C@]4(C)CCC23)C1(C)C (stereo partly specified)	12.5
OCCOCCN1CCN(Cc2cccc(Oc3ccccc3)c2)CC1	8.65
